Provide the reported kon of each item.
Biological target: T1, PVR conjugated to Histidine tag (PVR-HIS, Sino Cat. no. 10109-H08H) (Homo sapiens (Human), UniProt P15151 21-343)
T1 construct: Bought reagent; also called PVR-HIS tagged
T1 sequence: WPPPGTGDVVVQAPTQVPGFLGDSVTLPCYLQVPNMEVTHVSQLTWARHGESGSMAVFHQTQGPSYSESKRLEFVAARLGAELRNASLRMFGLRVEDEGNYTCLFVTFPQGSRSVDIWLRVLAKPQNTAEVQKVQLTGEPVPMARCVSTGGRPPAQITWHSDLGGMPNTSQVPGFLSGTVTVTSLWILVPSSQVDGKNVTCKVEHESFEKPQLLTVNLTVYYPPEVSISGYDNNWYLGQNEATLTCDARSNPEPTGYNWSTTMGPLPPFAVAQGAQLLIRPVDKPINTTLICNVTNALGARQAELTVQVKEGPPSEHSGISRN
Test: SPR (Biacore T200), antibody captured on Protein A chip, PVR-HIS as analyte, 1:1 binding
Experimental: Seven chimeric variants were generated by introducing a point mutation at residue asparagine N56. […] Binding was tested for the analyte PVR conjugated to Histidine tag (PVR-HIS, Sino Cat. no. 10109-H08H). Dilution range: Five point two-fold dilution from 50 nM to 3.125 nM. Conditions used: Instrument: Biacore T200 (serial no. 1909913) running Biacore T200 Evaluation Software V2.0.1. Running buffer: HBS-P+, 300 mM NaCl, 1 mg/ml BSA. Flow rate: […]. Association: 350 s, Dissociation: 800 s. […]
The answer is to be given in M⁻¹ s⁻¹; state only the numeric part.

-- ask Item chimeric anti-PVR antibody 5B9 wild type, IgG4 (S241P), VH0/VK0 (antibody, V domains shown, Mouse/human chimeric antibody with human IgG4 (S241P) constant region; also called WT; parental N56 variant (VH0VK0)) VH: QVQLQQSGAELMKPGASVKISCKATGYTFSNYWIEWIKQRPGHGLEWIGEIFPGSGRINFNEKFKGKATFTADTSSDTTYMQLSSLTSADSAVYYCARTKIYGNSFDYWGQGTTLTVSP VL: DIMMTQSHKFMSTSVGDRVNITCKASQDVGTAVVWYQQKPGQSPKLLIYWASSRHNGVPDRFTGSGSGTDFTLTISNVQSEDLSDYFCQQYSRYPLTFGAGTKLELK : provide kon
-- reply 140000

-- ask Give recorded kon. VH0/Vκ0 Pro56 (antibody, V domains shown, chimeric 5B9 N56 substitution variant; also called N56P) VH: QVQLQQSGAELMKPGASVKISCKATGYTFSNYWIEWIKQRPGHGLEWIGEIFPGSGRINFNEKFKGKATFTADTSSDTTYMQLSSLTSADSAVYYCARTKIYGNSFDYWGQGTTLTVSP VL: DIMMTQSHKFMSTSVGDRVNITCKASQDVGTAVVWYQQKPGQSPKLLIYWASSRHPGVPDRFTGSGSGTDFTLTISNVQSEDLSDYFCQQYSRYPLTFGAGTKLELK
-- reply 138000

-- ask Please look at this binder and report its kon: chimeric 5B9 N56E variant, IgG4(S241P) N56E_VH0/VK0 (antibody, name in Kabat numbering, V domains shown, Human IgG4 (S241P) constant region; also called chimeric N56E mutated parental antibody) VH: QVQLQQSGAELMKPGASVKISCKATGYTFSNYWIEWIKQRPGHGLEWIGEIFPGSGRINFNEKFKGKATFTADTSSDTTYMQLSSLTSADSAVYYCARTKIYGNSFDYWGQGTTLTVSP VL: DIMMTQSHKFMSTSVGDRVNITCKASQDVGTAVVWYQQKPGQSPKLLIYWASSRHEGVPDRFTGSGSGTDFTLTISNVQSEDLSDYFCQQYSRYPLTFGAGTKLELK
-- reply 184000

-- ask Tell me kon reported for VH0/Vκ0 Ser56 (antibody, V domains shown, chimeric 5B9 N56 substitution variant; also called N56S) VH: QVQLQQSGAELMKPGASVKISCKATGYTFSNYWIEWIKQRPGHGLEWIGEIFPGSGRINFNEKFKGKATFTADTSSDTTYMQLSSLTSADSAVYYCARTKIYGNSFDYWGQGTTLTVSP VL: DIMMTQSHKFMSTSVGDRVNITCKASQDVGTAVVWYQQKPGQSPKLLIYWASSRHSGVPDRFTGSGSGTDFTLTISNVQSEDLSDYFCQQYSRYPLTFGAGTKLELK
-- reply 152000
